Data origin, for the record: patent US5618844A

Biological target: Human Fibroblast Collagenase (Homo sapiens)
Construct: All active MMPs are purified by gel filtration
Sequence (P03956 100-269 limits assumed): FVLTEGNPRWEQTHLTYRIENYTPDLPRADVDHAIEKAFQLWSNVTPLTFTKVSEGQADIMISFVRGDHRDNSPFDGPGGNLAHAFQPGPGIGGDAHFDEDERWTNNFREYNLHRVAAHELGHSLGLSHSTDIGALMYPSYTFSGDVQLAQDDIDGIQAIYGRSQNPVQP
Experiment: inhibition of recombinant MMP, peptide substrate assay with fluorescamine detection (HFC)
Settings: calculated from measured percent inhibition using Km, assuming competitive inhibition; Met1-Pro250 proenzyme, activated with p-aminophenylmercury
Measured attribute: Ki (µM)

Examples with their reported Ki follow.
> print(dat)
                                   compound                              assay.system  assay.value
1  CNC(=O)[C@@H](NC(=O)[C@H](CCCCO)CC(=O)NO)C(C)(C)C  Human Fibroblast Collagenase (Homo sapiens)        0.027
2  CNC(=O)[C@H](Cc1ccccc1)NC(=O)[C@H](CCCCOCc1ccccc1)CC(=O)NO  Human Fibroblast Collagenase (Homo sapiens)         1.45
3  CNC(=O)[C@H](Cc1ccccc1)NC(=O)[C@H](CCCOCc1ccccc1)CC(=O)NO  Human Fibroblast Collagenase (Homo sapiens)         2.27
4  CNC(=O)[C@@H](NC(=O)[C@H](CCCCOc1cccc(C)c1)CC(=O)O)C(C)(C)C  Human Fibroblast Collagenase (Homo sapiens)          1.8
5  CNC(=O)[C@H](Cc1ccccc1)NC(=O)[C@H](CCCCO)CC(=O)NO  Human Fibroblast Collagenase (Homo sapiens)         0.03

I: CCCC(=O)NCCCC[C@H](CC(=O)NO)C(=O)N[C@@H](Cc1ccccc1)C(=O)NC
II: CNC(=O)[C@@H](NC(=O)[C@H](CCCCOc1ccc(C)cc1)CC(=O)NO)C(C)(C)C
III: CCCNC(=O)CCC[C@H](CC(=O)NO)C(=O)N[C@@H](Cc1ccccc1)C(=O)NC
IV: CNC(=O)[C@H](Cc1ccccc1)NC(=O)[C@H](CCCCCOCc1ccccc1)CC(=O)NO
stdin: Arrange items by their Ki values in increasing order. Lab note: record answer as labels in requested order.
stdout: II, IV, I, III

====

Target: Human Fibroblast Stromelysin (Homo sapiens, UniProt P08254)
Sequence (P08254 100-277): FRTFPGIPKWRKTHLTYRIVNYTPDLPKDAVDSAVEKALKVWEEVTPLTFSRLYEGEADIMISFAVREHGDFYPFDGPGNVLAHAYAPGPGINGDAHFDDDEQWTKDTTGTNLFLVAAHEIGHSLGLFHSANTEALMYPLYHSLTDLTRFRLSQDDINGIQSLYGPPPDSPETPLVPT
Assay: inhibition of recombinant MMP, peptide substrate assay with fluorescamine detection (HFS)
Measured attribute: Ki (nM)

The cases that follow already have their Ki on record.
> print(dat)
                                   compound  measured.attribute  assay.value
1  CNC(=O)[C@@H](NC(=O)[C@H](CCCCOc1cccc(C)c1)CC(=O)O)C(C)(C)C                  Ki          220
2  CNC(=O)[C@H](Cc1ccccc1)NC(=O)[C@H](CCCC(C)O)CC(=O)NO (some centres unmarked)                  Ki         1500
3  CNC(=O)[C@@H](NC(=O)[C@H](CCCCOCc1ccccc1)CC(=O)NO)C(C)(C)C                  Ki           57

1: CNC(=O)[C@@H](NC(=O)[C@H](CCCC(=O)NCCc1ccccc1)CC(=O)NO)C(C)(C)C
2: CNC(=O)[C@@H](NC(=O)[C@H](CCCCO)CC(=O)NO)C(C)(C)C
stdin: Which record shows the lower Ki: the first, 1 , or the second, 2 ? Respond using the label that marks the chosen record.
stdout: 1
(1: 26 nM, 2: 5000 nM)
